test.protocol: Primary qHTS for Inhibitors of ATXN expression; also: nearly all actives have a fitted effect of over 55% in size
run.parameters: HEK-293 ATXN2-luciferase reporter, luminescence, 24 h; series mostly up to 57 µM
Hit rate of the full screen: of about 360,000 compounds, about 2,600 (0.72%) were called active. Inconclusive results (about 5%) are left out. Calls follow the shape of the dose curve; as a rule, active = well fitted inhibition curve with a large enough effect; inconclusive = small, poorly fitted or top-dose-only effect; inactive = no such curve, though single readings can be large or run the other way. For the sample, actives were picked, then their nearest neighbours and some compounds at random.
Respond using exactly one of the listed classes: true (1) for active, false (0) for inactive

QUERY: Could you please tell me the result logged for "Cc1ncsc1CCCl" in this assay?
RESULT: false (0)

QUERY: Hi team, can someone confirm the assay call for Oc1ccc2c3c1OC1[C@H](O)CC[C@@]4(O)[C@@H](C2)N(CC2CC2)CC[C@]314 (stereo partly drawn) ?
RESULT: false (0)

QUERY: Which outcome did this test record for the molecule CCC(C)(O)C(=O)OC1C(=O)OC2CC3C(C)=CC(=O)C(O)C3(C)C3C4(O)OCC23C1C(C)C4O (stereo not drawn) ?
RESULT: true (1)

QUERY: Recorded call for "Cc1cccc(Cn2cccc(C(=O)Nc3ccc4c(c3)OCCO4)c2=O)c1" ?
RESULT: false (0)

QUERY: What did the test return for COc1cccc(C(c2nnnn2-c2ccc3c(c2)OCCO3)N2CCC3(CC2)C(=O)NCN3c2ccccc2)c1OC (stereo not drawn) ?
RESULT: false (0)

QUERY: Called result for "CC[N+]1(CCOC(=O)C(O)(c2ccccc2)c2ccccc2)CCCCC1"
RESULT: false (0)

QUERY: Outcome? CCCOC(=O)c1cncn1C(C)c1ccccc1 (stereo not drawn)
RESULT: false (0)

QUERY: Entry "O=P(OC1=CCCCC1)(c1ccccc1)c1ccccc1" : call = ?
RESULT: false (0)

QUERY: Recorded test call requested for "O=C1NC(=O)N(CCc2ccc(F)cc2)C(=O)/C1=C/C=C/c1ccccc1"
RESULT: true (1)

QUERY: Identify the outcome logged in this assay for the molecule shown: CSCCC(c1nnnn1C(C)(C)C)N1CCC(n2c(=O)[nH]c3ccccc32)CC1 (stereo not drawn)
RESULT: false (0)

QUERY: Any idea what this test logged for COC(=O)CN(CCCl)P1(=O)OCCCN1CCCl (stereo not drawn) ?
RESULT: false (0)

QUERY: Identify the outcome logged in this assay for the molecule shown: "COC(=O)C1=C(c2ccc(OCc3ccccc3)cc2)C[C@@H]2CC[C@H]1N2C(=O)NCc1cccc(F)c1"
RESULT: false (0)

QUERY: What is the recorded call for this molecule in the test? "CC1=C(C(=O)O)N2C(=O)[C@@H](N)[C@H]2SC1"
RESULT: false (0)

QUERY: Returns: the outcome recorded for "O=S(=O)(O)C(F)(F)C(F)(F)C(F)(F)C(F)(F)F" in this assay.
RESULT: false (0)

QUERY: Record lookup: outcome of this test for "O=C(NCC1=C(c2ccc3ccccc3c2)C[C@@H]2CC[C@H]1N2Cc1ccco1)c1cccs1" ?
RESULT: false (0)

QUERY: Can you look up the reported call for O=c1[nH]c2ccccc2n1C1CCN(C(c2ccnc3ccccc23)c2nnnn2Cc2ccccc2)CC1 (stereo not drawn) for me?
RESULT: false (0)

QUERY: Hi, sorry to bother you, what did the test record for "O=C(O)COc1ccccc1/C=C1\C(=O)NC(=O)N(CCC2=CCCCC2)C1=O" ?
RESULT: false (0)

QUERY: In this assay, the call recorded for CC(Cc1ccccc1)NCCC(c1ccccc1)c1ccccc1 (stereo not drawn) was what?
RESULT: true (1)

QUERY: Check the results log: what was the call for "CNC(=S)N/N=C1\C2CN3CCN(C2)CC1(c1ccccc1)C3" ?
RESULT: false (0)

QUERY: How was "CCCn1c(C(=O)c2ccccc2OC)nc2ccccc21" classified in this test?
RESULT: false (0)

QUERY: Fill in: this test's call for "CCOC(=O)[C@]12Cc3ccccc3[C@H]1N(C1CCCCC1)C(=O)c1cc(OC)ccc12" is ___
RESULT: true (1)

QUERY: Recorded call for "CCOC(=O)[C@]12Cc3cc(OC)ccc3[C@H]1N(C(C)C)C(=O)c1ccccc12" ?
RESULT: true (1)

QUERY: Lab log entry: "O=C(NC1CCCCC1)N1Cc2cc(N3CCCCC3)ccc2-n2nncc2C1" — outcome as called in the assay?
RESULT: false (0)

QUERY: Each molecule tested received a call. Report the one for COC1C(O)C(C)OC(OC2CCC3(C=O)C(CCC4C3CCC3(C)C(C5=CC(=O)OC5)CCC43O)C2)C1O (stereo not drawn) .
RESULT: false (0)

QUERY: Please let me know the test result on file for "CO[C@]12CC[C@@]3(C[C@@H]1[C@](C)(O)C(C)(C)C)[C@@H]1Cc4ccc(O)c5c4[C@@]3(CCN1CC1CC1)[C@H]2O5" .
RESULT: true (1)

QUERY: What did this assay record as the result for "O=C(N/N=C/c1ccc([N+](=O)[O-])o1)c1cc([N+](=O)[O-])cc([N+](=O)[O-])c1O" ?
RESULT: false (0)

QUERY: Field: outcome | Entry: "CC(=Cc1csc(C)n1)[C@@H]1C[C@H]2O[C@]2(C)CCC[C@H](C)[C@@H](O)[C@@H](C)C(=O)C(C)(C)[C@@H](O)CC(=O)O1"
RESULT: false (0)

QUERY: # lookup: test call for CC1N=C(N)OC1c1ccccc1 (stereo not drawn)
RESULT: false (0)

QUERY: Outcome logged for "COc1cc(C(=O)N2Cc3ccc(Br)cc3-n3nncc3C2)cc(OC)c1OC" in this assay:
RESULT: false (0)

QUERY: Assay result, entry C[C@]12CCC3C(CC[C@H]4C[C@@H](O)CC[C@]34C)C1CC[C@@H]2O (stereo partly drawn) — outcome?
RESULT: false (0)

QUERY: // return assay outcome for "NCCc1ccc(S(=O)(=O)F)cc1"
RESULT: false (0)

QUERY: Record request — test call for "COC(=O)C1=C(c2ccc(OCc3ccccc3)cc2)C[C@@H]2CC[C@H]1N2C(=O)NCc1ccc(Cl)cc1"
RESULT: false (0)

QUERY: Outcome? "O=C1NC(=O)N(c2ccc(F)cc2)C(=O)/C1=C/c1ccc2c(c1)CCCN2Cc1ccccc1"
RESULT: false (0)

Cited source for all entries: PubChem BioAssay AID1745845
